Provenance of the data: ChEMBL document CHEMBL5247657

Assay: Half-life in Beagle dog at 1 mg/kg, iv measured upto 24 hrs by LC-MS/MS analysis
Type: ADME, organism-based, Canis lupus familiaris
Conditions: in vivo
ASSAY ENDPOINT: half-life (h)
Give bare numbers, in h.

IN: Report half-life for C=CC(=O)N1CCC([C@@H]2CCNc3c(C(N)=O)c(-c4cc(OC)c(C)c(OC)c4)nn32)CC1 please.
OUT: 2.5

---

Test: Tmax in Sprague-Dawley rat at 5 mg/kg, po measured upto 24 hrs by LC-MS/MS analysis
Assay type: ADME, organism-based
Conditions: in vivo
ASSAY ENDPOINT: Tmax (min)
One number for each entry, in min.

IN: Report Tmax for C=CC(=O)N1CCC([C@@H]2CCNc3c(C(N)=O)c(-c4cc(OC)c(C)c(OC)c4)nn32)CC1 please.
OUT: 15

---

Experiment: Tmax in Beagle dog at […], po measured upto 24 hrs by LC-MS/MS analysis
Type: ADME, organism-based, Canis lupus familiaris
Settings: in vivo, dose 2.5 mg/kg
ASSAY ENDPOINT: Tmax at 24 h (min)
Numbers only, in min.

IN: Report Tmax at 24 h for C=CC(=O)N1CCC([C@@H]2CCNc3c(C(N)=O)c(-c4cc(OC)c(C)c(OC)c4)nn32)CC1 please.
OUT: 25.2

---

Assay: Volume of distribution at steady state in Sprague-Dawley rat at 1 mg/kg, iv measured upto 24 hrs by LC-MS/MS analysis
Type: ADME, organism-based
Conditions: in vivo, read-out: Vdss
ASSAY ENDPOINT: Vd (L/kg)
Give bare numbers, in L/kg.

IN: Report Vd for C=CC(=O)N1CCC([C@@H]2CCNc3c(C(N)=O)c(-c4cc(OC)c(C)c(OC)c4)nn32)CC1 please.
OUT: 0.9

---

Assay: in vivo
Conditions: Sprague-Dawley, rat, po, 5 mg/kg
ASSAY ENDPOINT: AUC(0-inf) at 24 h (ng·h/mL)
One number for each entry, in ng·h/mL.

IN: Report AUC(0-inf) at 24 h for C=CC(=O)N1CCC([C@@H]2CCNc3c(C(N)=O)c(-c4cc(OC)c(C)c(OC)c4)nn32)CC1 please.
OUT: 964

---

Assay: in vivo
Settings: Beagle, dog, po
ASSAY ENDPOINT: AUC(0-inf) at 24 h (ng·h/mL)
Give bare numbers, in ng·h/mL.

IN: Report AUC(0-inf) at 24 h for C=CC(=O)N1CCC([C@@H]2CCNc3c(C(N)=O)c(-c4cc(OC)c(C)c(OC)c4)nn32)CC1 please.
OUT: 2640
